# Target or system: human GnRH receptor (Homo sapiens)
# Construct: The cDNA for the human GnRH receptor is cloned into the plasmid expression vector, pcDNA 3; expressed in transfected cells; host or cells: HEK 293 cells, stably transfected (pcDNA 3); membrane preparation
# Sequence (P30968 1-328): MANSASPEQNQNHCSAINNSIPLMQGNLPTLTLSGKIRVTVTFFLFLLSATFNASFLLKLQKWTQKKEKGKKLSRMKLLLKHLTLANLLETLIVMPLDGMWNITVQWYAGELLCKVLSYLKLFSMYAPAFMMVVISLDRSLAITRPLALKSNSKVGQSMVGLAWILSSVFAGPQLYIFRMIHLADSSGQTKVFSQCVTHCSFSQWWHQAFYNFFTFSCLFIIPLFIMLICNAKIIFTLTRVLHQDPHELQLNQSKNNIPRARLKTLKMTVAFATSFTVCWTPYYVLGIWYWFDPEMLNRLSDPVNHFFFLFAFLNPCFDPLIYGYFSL
# Procedure summary: GnRH receptor competitive radioligand binding assay (125I-GnRH-A, HEK 293 cell membranes)
# Run conditions: compound at 10 μM; crude compounds; 125I-GnRH-A; lower value = higher inhibition; read-out: % Remaining 2nd Test (percent of specific binding remaining)
Here, each record is paired with measured remaining activity at 10 µM data.
Express the reported value numerically, then name its unit.

Cc1cc2c(cc1CN(CC1CCCC(CNC(=N)N)C1)C(=O)c1ccccc1)C(C)(C)CCC2(C)C (centres unmarked) [Compound 56] | 60%

Q. Dear colleague, I am looking for the recorded remaining activity at 10 µM of the following compound: CN(C)CCCOc1ccc(CN(CC2CCCC(CNC(=N)N)C2)C(=O)c2ccc3ccccc3c2)cc1 (centres unmarked) [Compound 46]
A. 52%

Q. What value of remaining activity at 10 µM has been recorded for this entry: N=C(N)NCCCCN(CC12CC=CCC1C1CC=CCC1O2)C(=O)c1cccc2ccccc12 (centres unmarked) [Compound 25]
A. 51%

Q. Which remaining activity at 10 µM reading was recorded for the compound CC(C)(C)c1ccc(CN(CC2CCC(CNC(=N)N)CC2)C(=O)C2CCCC2)cc1 (centres unmarked) [Compound 73] ?
A. 57%

Q. remaining activity at 10 µM lookup needed for N=C(N)NCc1ccc(CN(CC23CC=CCC2C2CC=CCC2O3)C(=O)c2ccc(Cl)nc2)cc1 (centres unmarked) [Compound 9] , thanks.
A. 53%

Q. Given CC(C)(C)c1ccc(CN(CCCCNC(=N)N)C(=O)c2ccc3ccccc3c2)cc1 [Compound 24] , state its recorded remaining activity at 10 µM.
A. 58%

Q. # lookup: remaining activity at 10 µM of CC(=O)N(Cc1cc2c(cc1C)C(C)(C)CCC2(C)C)CC1CCCC(CNC(=N)N)C1 (centres unmarked) [Compound 57]
A. 63%

Q. Recorded remaining activity at 10 µM of N=C(N)NCc1ccc(CN(Cc2ccc(OCc3ccccc3)c(OCc3ccccc3)c2)C(=O)c2ccccc2)cc1 [Compound 19] , please.
A. 42%

====

# Target or system: human GnRH receptor (Homo sapiens, UniProt P30968)
# Construct: The cDNA for the human GnRH receptor is cloned into the plasmid expression vector, pcDNA 3; expressed in transfected cells; host or cells: HEK 293 cells, stably transfected (pcDNA 3); membrane preparation
# Procedure summary: GnRH receptor competitive radioligand binding assay (125I-GnRH-A, HEK 293 cell membranes)
# Run conditions: compound at 10 μM; crude compounds; 125I-GnRH-A; lower value = higher inhibition; read-out: % Remaining 2nd Test (percent of specific binding remaining)
Assay metric: remaining activity at 10 µM

Solved entries:
N=C(N)NCCCCN(Cc1ccc(OCc2ccccc2)c(OCc2ccccc2)c1)C(=O)C1CCCCC1 [Compound 33] | 65%
COC(=O)CCCCCC(=O)N(Cc1cc2c(cc1C)C(C)(C)CCC2(C)C)CC1CCC(CNC(=N)N)CC1 (stereo not shown) [Compound 100] | 58%
Cc1cc2c(cc1CN(CC1CCC(CNC(=N)N)CC1)C(=O)c1ccc(Cl)nc1)C(C)(C)CCC2(C)C (stereo not shown) [Compound 84] | 44%

Field: next molecule
Q. Could you share which remaining activity at 10 µM value was measured for N=C(N)NCC1CCCC(CN(Cc2ccc3c(c2)OCCO3)C(=O)c2cccc3ccccc23)C1 (stereo not shown) [Compound 65] ?
A. 59%
